# subject_of_test: T1, human calcitonin receptor (human, UniProt P30988 25-474)
# T1 construct: whole, on cells; membranes of stably transfected BHK cells (Assay VII); also called hCTR; hCT
# T1 sequence (looked up): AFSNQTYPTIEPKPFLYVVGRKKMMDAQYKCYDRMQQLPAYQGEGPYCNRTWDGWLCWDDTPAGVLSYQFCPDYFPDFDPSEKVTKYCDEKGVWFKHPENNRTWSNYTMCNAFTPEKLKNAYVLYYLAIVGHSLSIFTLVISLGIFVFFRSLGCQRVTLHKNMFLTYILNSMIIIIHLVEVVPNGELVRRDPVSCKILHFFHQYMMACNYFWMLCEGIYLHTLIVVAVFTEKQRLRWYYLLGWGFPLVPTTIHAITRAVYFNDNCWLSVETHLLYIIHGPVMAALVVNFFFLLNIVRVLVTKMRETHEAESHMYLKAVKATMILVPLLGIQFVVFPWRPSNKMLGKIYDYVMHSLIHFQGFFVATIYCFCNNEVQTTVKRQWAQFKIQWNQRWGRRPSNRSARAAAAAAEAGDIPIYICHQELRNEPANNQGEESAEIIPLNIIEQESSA
# experiment_summary: IC50 on human calcitonin receptor divided by IC50 on human amylin receptor (SPA competition)
Numbered stars: 1 amine (or outer) side, 2 acyl side, 3 side chain; on linkers, the order of the positions; unused ones are H or OH. Bridge positions count the residues as written; N and C are the ends. Side chains are listed from the residue outwards. Ends that are not written are not given here. * marks the point of attachment. C20 diacid = O=C(O)CCCCCCCCCCCCCCCCCCC(=O)*; γGlu = O=C(O)[C@H](CCC(=O)[*:2])N[*:1]; AEEA = NCCOCCOCC(=O)O
Is Ratio hCT/hAmylin binding at least 30? Then Met. If not, Not met.

[Q] Hi, just wondering whether {C20 diacid-γGlu}-KCNTATCATQRLAEFLRHSSPNFGAIPSSTNVGSETY-NH2 (disulfide 2-7 (inferred), analogue of human amylin; the name is printed with N^α1 twice; also called compound 22) shows Ratio hCT/hAmylin binding of 30 or higher.
[A] Not met

[Q] Hi, just wondering whether K([AEEA-γGlu-C20 diacid])CNTATCATQRLANFLRHSSPNFGAIPSSTNVGSETY-NH2 (disulfide 2-7 (inferred), analogue of human amylin; also called compound 26) shows Ratio hCT/hAmylin binding of 30 or higher.
[A] Met

[Q] Hi, just wondering whether {C20 diacid-γGlu}-KCNTATCATQRLAEFLRHSSPNFGAIPSSTPVGSNTY-NH2 (disulfide 2-7 (inferred), analogue of human amylin; also called compound 31) shows Ratio hCT/hAmylin binding of 30 or higher.
[A] Not met

[Q] Hi, just wondering whether {C20 diacid-γGlu}-KCNTATCATQRLAEFLRHSSPNFGAIPSSTNVGSRTY-NH2 (disulfide 2-7 (inferred), analogue of human amylin; also called compound 16) shows Ratio hCT/hAmylin binding of 30 or higher.
[A] Not met

[Q] Hi, just wondering whether K([γGlu-γGlu-C20 diacid])CNTATCATQRLADFLRHSSPNFGAPLSSTNVGSDTY-NH2 (disulfide 2-7 (inferred), analogue of human amylin; also called compound 1) shows Ratio hCT/hAmylin binding of 30 or higher.
[A] Not met
